molecular target: BRAF V600E (Homo sapiens, UniProt P15056, V600E); construct: endogenous C-terminal HiBiT fusion tag on BRAF V600E allele; endogenous in cells; host or cells: A375 clone 1F10 (CRISPR-Cas9 knock-in of the HiBiT tag; parental A375 from ATCC); test: BRAF HiBiT degradation assay, C-terminal HiBiT-tagged BRAF V600E A375 cells (clone 1F10), Nano-Glo HiBiT Lytic assay; format: cell-based; details: A-375; A375 (BRAF V600E); percentage protein degraded at maximal compound effect relative to DMSO
Sequence (P15056 whole entry V600E, the tested form may be a part): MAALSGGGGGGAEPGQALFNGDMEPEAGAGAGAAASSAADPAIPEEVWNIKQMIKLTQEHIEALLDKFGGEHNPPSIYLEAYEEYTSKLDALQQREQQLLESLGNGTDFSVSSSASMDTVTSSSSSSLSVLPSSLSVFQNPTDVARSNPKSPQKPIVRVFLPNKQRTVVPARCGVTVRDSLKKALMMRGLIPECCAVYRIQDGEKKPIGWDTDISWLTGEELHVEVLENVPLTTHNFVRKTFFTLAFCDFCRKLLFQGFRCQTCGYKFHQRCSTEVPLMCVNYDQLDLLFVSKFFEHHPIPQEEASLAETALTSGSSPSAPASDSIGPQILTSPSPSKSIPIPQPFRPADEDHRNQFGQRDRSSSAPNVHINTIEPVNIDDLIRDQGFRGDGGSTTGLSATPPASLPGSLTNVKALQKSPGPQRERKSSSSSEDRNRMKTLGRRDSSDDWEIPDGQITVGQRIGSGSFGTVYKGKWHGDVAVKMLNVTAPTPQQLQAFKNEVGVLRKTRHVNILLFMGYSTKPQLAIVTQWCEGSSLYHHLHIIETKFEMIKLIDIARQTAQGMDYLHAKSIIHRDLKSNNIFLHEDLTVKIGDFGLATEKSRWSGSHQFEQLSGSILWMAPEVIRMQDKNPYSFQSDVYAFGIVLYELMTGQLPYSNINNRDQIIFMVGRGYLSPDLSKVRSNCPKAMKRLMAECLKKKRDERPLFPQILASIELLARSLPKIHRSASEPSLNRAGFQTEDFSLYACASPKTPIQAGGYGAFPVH
VALUE KIND: Dmax

COMPOUND: CCCS(=O)(=O)Nc1cccc(-c2nc(C3CCC4(CC3)CN(C(=O)C3CCN(c5ccc6c(c5)C(=O)N(C5CCC(=O)NC5=O)C6=O)CC3)C4)sc2-c2ccnc(N)n2)c1F (racemic)
VALUE KIND: Dmax
REPORTED: > 70%

COMPOUND: CCCS(=O)(=O)Nc1cccc(-c2nc(C3CCC4(CC3)CCN(C(=O)C3CCN(c5ccc6c(c5)C(=O)N(C5CCC(=O)NC5=O)C6=O)CC3)CC4)sc2-c2ccnc(N)n2)c1F (racemic)
VALUE KIND: Dmax
REPORTED: > 70%

COMPOUND: CCCS(=O)(=O)Nc1cccc(-c2nc(C(C)(C)C)sc2-c2ccnc(NC3CC4(C3)CN(C(=O)CN3CCC5(CC3)CN(c3ccc6c(c3)C(=O)N(C3CCC(=O)NC3=O)C6=O)C5)C4)n2)c1F (racemic)
VALUE KIND: Dmax
REPORTED: 30 to 70%

COMPOUND: CCN(C)S(=O)(=O)Nc1cccc(-c2nc(C)sc2-c2ccnc(Nc3ccc(N4CCN(C(=O)C5CCN(c6ccc(C7CCC(=O)NC7=O)cn6)CC5)CC4)cn3)n2)c1F (racemic)
VALUE KIND: Dmax
REPORTED: > 70%

COMPOUND: CCCS(=O)(=O)Nc1cccc(-c2nc(C(C)(C)C)sc2-c2ccnc(Nc3cnn(C4CCN(CC[C@@H]5CCN(c6ccc(C7CCC(=O)NC7=O)cn6)C5)CC4)c3)n2)c1F (mixture of isomers)
VALUE KIND: Dmax
REPORTED: > 70%

COMPOUND: CCN(C)S(=O)(=O)Nc1cccc(-c2nc(C)sc2-c2ccnc(Nc3ccc(N4CCN(CC5CCN(c6ccc(C7CCC(=O)NC7=O)cn6)CC5)CC4)cn3)n2)c1F (racemic)
VALUE KIND: Dmax
REPORTED: > 70%

COMPOUND: CCCS(=O)(=O)Nc1cccc(-c2nc(C(C)(C)C)sc2-c2ccnc(Nc3ccc(N4CCN(C(=O)[C@@H]5CCN(c6ccc([C@H]7CCC(=O)NC7=O)cn6)C5)CC4)c(F)c3)n2)c1F (racemic)
VALUE KIND: Dmax
REPORTED: > 70%

COMPOUND: CCCS(=O)(=O)Nc1cccc(-c2nc(C(C)(C)C)sc2-c2ccnc(NC3CC4(C3)CN(C(=O)C3CCN(c5cccc6c5n(C)c(=O)n6C5CCC(=O)NC5=O)CC3)C4)n2)c1F (racemic)
VALUE KIND: Dmax
REPORTED: 30 to 70%

COMPOUND: CCCS(=O)(=O)Nc1cccc(-c2nc(C3CCN(C(=O)C4CCN(C(=O)C5(C)CCN(c6ccc(C7CCC(=O)NC7=O)cn6)CC5)CC4)CC3)sc2-c2ccnc(N)n2)c1F (racemic)
VALUE KIND: Dmax
REPORTED: > 70%

COMPOUND: CCN(C)S(=O)(=O)Nc1cccc(-c2nc(C)sc2-c2ccnc(Nc3ccc(N4CCN(CC5CCN(c6ccc([C@H]7CCC(=O)NC7=O)cc6)CC5)CC4)cn3)n2)c1F
VALUE KIND: Dmax
REPORTED: > 70%

COMPOUND: CCCS(=O)(=O)Nc1cccc(-c2nc(-c3ccc(C4CCN(C(=O)CC5CCN(c6ccc(NC7CCC(=O)NC7=O)cc6)CC5)CC4)cc3)sc2-c2ccnc(N)n2)c1F (racemic)
VALUE KIND: Dmax
REPORTED: 30 to 70%

COMPOUND: CCN(C)S(=O)(=O)Nc1cccc(-c2nc(C)sc2-c2ccnc(Nc3ccc(N4CCN(CC5(F)CCN(c6ccc(C7CCC(=O)NC7=O)cc6)CC5)CC4)cn3)n2)c1F (racemic)
VALUE KIND: Dmax
REPORTED: > 70%

COMPOUND: CCCS(=O)(=O)Nc1cccc(-c2nc(C(C)(C)C)sc2-c2ccnc(Nc3cnn(CC4CCN(C[C@H]5CC[C@H](Oc6ccc(C7CCC(=O)NC7=O)cc6)CC5)CC4)c3)n2)c1F (mixture of isomers)
VALUE KIND: Dmax
REPORTED: > 70%

COMPOUND: CCCS(=O)(=O)Nc1cccc(-c2nc(C(C)(C)C)sc2-c2ccnc(NC3CC4(C3)CN(C(=O)CN3CCN(CCCc5cccc6c5C(=O)N(C5CCC(=O)NC5=O)C6=O)CC3)C4)n2)c1F (racemic)
VALUE KIND: Dmax
REPORTED: 30 to 70%

COMPOUND: CCCS(=O)(=O)Nc1cccc(-c2nc(C3CCN(CC4CCN(C(=O)CN5CCc6cc(C7CCC(=O)NC7=O)ccc6C5)CC4)CC3)sc2-c2ccnc(N)n2)c1F (racemic)
VALUE KIND: Dmax
REPORTED: 30 to 70%

COMPOUND: CCCS(=O)(=O)Nc1cccc(-c2nc(C)sc2-c2ccnc(Nc3ccc(C4CCN(CC5CCN(c6ccc([C@@H]7CCC(=O)NC7=O)cc6)CC5)CC4)cc3)n2)c1F
VALUE KIND: Dmax
REPORTED: > 70%

COMPOUND: CCCS(=O)(=O)Nc1cccc(-c2nc(C(C)(C)C)sc2-c2ccnc(NC3CC4(C3)CN(CC3CCN(CC5CCN(c6ccc(C7CCC(=O)NC7=O)cc6)CC5)CC3)C4)n2)c1F (racemic)
VALUE KIND: Dmax
REPORTED: 30 to 70%

COMPOUND: CCCS(=O)(=O)Nc1cccc(-c2nc(-c3ccc(N4CCN(CC5CCN(c6ccc([C@H]7CCC(=O)NC7=O)cc6)CC5)CC4)cc3)sc2-c2ccnc(N)n2)c1F
VALUE KIND: Dmax
REPORTED: > 70%

COMPOUND: CCCS(=O)(=O)Nc1cccc(-c2nc(C(C)(C)C3CCN(C(=O)C4CN(C5CCN(c6ccc7c(c6)C(=O)N(C6CCC(=O)NC6=O)C7=O)CC5)C4)CC3)sc2-c2ccnc(N)n2)c1F (racemic)
VALUE KIND: Dmax
REPORTED: 30 to 70%

Source listed as patent US20260317324A1.
